test_parameters: 1 h, pH 7.4
property_name: Percent parent compound remaining at 60 minutes in liver microsomes, Human (%)
Enter your answer as a number in %; do not include the unit.

# count of solved cases: 2
>  <smiles_entry>
CC(C)Oc1ccc(-n2nnc3ccc(-c4ccc(C(C)(C)O)cc4)cc32)cc1

>  <endpoint_unit>
%

>  <value_observed>
72.3

$$$$
>  <smiles_entry>
Cc1cc2ncc(-c3ccc(OC(C)(C)C)cc3)n2cc1-c1ccc(C(C)(C)O)cc1

>  <endpoint_unit>
%

>  <value_observed>
81.5

$$$$

Asked: Answer with the recorded Percent parent compound remaining at 60 minutes in liver microsomes, Human of Cc1cc2ncn(-c3ccc(OC(C)C)cc3)c2cc1-c1ccc(C(C)(C)O)cc1 only.
Given back: 89.9

====

Test system: native replicating Tacaribe (TCRV) virus
test_protocol: microbe, parasite or virus in culture
Type: cell-based
test_parameters: Mammarenavirus tacaribeense, Vero, 120 h, read-out: TCRV EC50
property_name: EC50
Numeric answer plus unit only.

Some solved entries appear below for comparison.
>  <compound>
Cc1cc2ncc(-c3ccc(C(C)(C)O)cc3)n2cc1-c1ccc(OC(C)C)cc1 [Example B8]

>  <property_name>
EC50

>  <value_observed>
2.16 nM

$$$$
>  <compound>
Cc1cc2ncc(-c3ccc(OC(C)(C)C)cc3)n2cc1-c1ccc(C(C)(C)O)cc1 [Example B6]

>  <property_name>
EC50

>  <value_observed>
0.95 nM

$$$$
>  <compound>
Cc1cc2ncn(-c3ccc(OC(C)C)cc3)c2cc1-c1ccc(C(C)(C)O)cc1 [Example A3]

>  <property_name>
EC50

>  <value_observed>
0.87 nM

$$$$
>  <compound>
Cc1cc2ncn(-c3ccc(OC(C)(C)C)cc3)c2cc1-c1ccc(OC(C)C)cc1 [Example A2]

>  <property_name>
EC50

>  <value_observed>
0.33 nM

$$$$

Asked: // fetch EC50 for CC(C)Oc1ccc(-c2cc3c(cc2Cl)nnn3-c2ccc(OC(C)C)cc2)cc1 [Example C11] ; system: native replicating Tacaribe (TCRV) virus
Given back: 0.84 nM

Asked: Give EC50; test system native replicating Tacaribe (TCRV) virus; compound Cc1cc2ncc(-c3ccc(OC(C)(C)C)cc3)n2cc1-c1ccc(OC(C)C)cc1 [Example B7]
Given back: 0.74 nM

Asked: Check native replicating Tacaribe (TCRV) virus data and give EC50 for Cc1cc2ncc(-c3ccc(OC(C)C)cc3)n2cc1-c1ccc(C(C)(C)O)cc1 [Example B5] .
Given back: 0.88 nM

Asked: Quote EC50 with test system native replicating Tacaribe (TCRV) virus for Cc1cc2ncn(-c3ccc(OC(C)(C)C)cc3)c2cc1-c1ccc(C(C)(C)O)cc1 [Example A1]
Given back: 0.89 nM

====

test_protocol: in vivo
test_parameters: mouse, po, 30 mg/kg
property_name: AUC(0-t) (µg·h/mL)
Please reply with the bare figure in µg·h/mL and do not write the unit itself.

>  <molecule>
Cc1cc2ncc(-c3ccc(OC(C)(C)C)cc3)n2cc1-c1ccc(OC(C)C)cc1 [Example B7]

>  <value_observed>
70.4

$$$$

Asked: Consider the molecule Cc1cc2ncn(-c3ccc(OC(C)(C)C)cc3)c2cc1-c1ccc(C(C)(C)O)cc1 [Example A1] and give its recorded AUC(0-t).
Given back: 183

====

test_parameters: 1 h, pH 7.4
property_name: Percent parent compound remaining at 60 minutes in liver microsomes, Human

Solved cases (3 shown):
>  <smiles_entry>
CC(C)Oc1ccc(-c2ccc3nnn(-c4ccc(OC(C)C)cc4)c3c2F)cc1

>  <value_observed>
>95%

$$$$
>  <smiles_entry>
Cc1c(-c2ccc(OC(C)C)cc2)ccc2nnn(-c3ccc(OC(C)C)cc3)c12

>  <value_observed>
>95%

$$$$
>  <smiles_entry>
Cc1cc2ncc(-c3ccc(OC(C)C)cc3)n2cc1-c1ccc(C(C)(C)O)cc1

>  <value_observed>
86.7%

$$$$

Next:
Asked: Look up and report measured Percent parent compound remaining at 60 minutes in liver microsomes, Human for this entry: Cc1cc2ncc(-c3ccc(C(C)(C)O)cc3)n2cc1-c1ccc(OC(C)C)cc1
Given back: 87.6%
